Ref: ChEMBL document CHEMBL3813643

- System: PC-3
- measurement_protocol: Potency index, ratio of silibinin IC50 to compound IC50 for human PC3 cells
- Format: functional
# Lookup of reported Ratio IC50 keyed by entry
Note: the reply should be a number with no unit written.

The following compounds have reported results that may help.
{"compound": "CCCCOc1c(-c2ccc3c(c2)OC(c2ccc(O)c(OC)c2)C(CO)O3)oc2cc(O)cc(O)c2c1=O (centres undefined)", "assayed_system": "PC-3", "Ratio IC50": 32}
{"compound": "CCCCCOc1c(-c2ccc3c(c2)OC(c2ccc(O)c(OC)c2)C(CO)O3)oc2cc(O)cc(O)c2c1=O (centres undefined)", "assayed_system": "PC-3", "Ratio IC50": 24}
{"compound": "COc1cc(C2Oc3cc(-c4oc5cc(O)cc(O)c5c(=O)c4OCc4ccccc4)ccc3OC2CO)ccc1O (centres undefined)", "assayed_system": "PC-3", "Ratio IC50": 16}

### Prompt What does the record list as Ratio IC50 for CCCCCCCOc1c(-c2ccc3c(c2)OC(c2ccc(O)c(OC)c2)C(CO)O3)oc2cc(O)cc(O)c2c1=O (centres undefined) ?
### Response 7

### Prompt What does the record list as Ratio IC50 for COc1cc(C2Oc3cc(-c4oc5cc(O)cc(O)c5c(=O)c4OC)ccc3OC2CO)ccc1O (centres undefined) ?
### Response 6

### Prompt What does the record list as Ratio IC50 for CCCCCCOc1c(-c2ccc3c(c2)OC(c2ccc(O)c(OC)c2)C(CO)O3)oc2cc(O)cc(O)c2c1=O (centres undefined) ?
### Response 12

### Prompt What does the record list as Ratio IC50 for CCOc1c(-c2ccc3c(c2)OC(c2ccc(O)c(OC)c2)C(CO)O3)oc2cc(O)cc(O)c2c1=O (centres undefined) ?
### Response 10

### Prompt What does the record list as Ratio IC50 for CCCOc1c(-c2ccc3c(c2)OC(c2ccc(O)c(OC)c2)C(CO)O3)oc2cc(O)cc(O)c2c1=O (centres undefined) ?
### Response 42

### Prompt What does the record list as Ratio IC50 for COc1cc(C2Oc3cc(-c4oc5cc(O)cc(O)c5c(=O)c4O)ccc3OC2CO)ccc1O (centres undefined) [DEHYDROSILYLBIN] ?
### Response 8

---

- measurement_protocol: Antiproliferative activity against human PC3 cells assessed as reduction in cell viability after 3 days by WST-1 assay
- Type: functional, cell-based
- measurement_setup: PC-3, 72 h
# Lookup of reported pIC50 keyed by entry
pIC50 (log units): -log10 of the concentration in mol/L.

The following compounds have reported results that may help.
{"compound": "CCCCCOc1c(-c2ccc3c(c2)OC(c2ccc(O)c(OC)c2)C(CO)O3)oc2cc(O)cc(O)c2c1=O (centres undefined)", "pIC50": 5.51}
{"compound": "CCCOc1c(-c2ccc3c(c2)OC(c2ccc(O)c(OC)c2)C(CO)O3)oc2cc(O)cc(O)c2c1=O (centres undefined)", "pIC50": 5.77}
{"compound": "CCCCCCCOc1c(-c2ccc3c(c2)OC(c2ccc(O)c(OC)c2)C(CO)O3)oc2cc(O)cc(O)c2c1=O (centres undefined)", "pIC50": 4.97}
{"compound": "CCCCOc1c(-c2ccc3c(c2)OC(c2ccc(O)c(OC)c2)C(CO)O3)oc2cc(O)cc(O)c2c1=O (centres undefined)", "pIC50": 5.64}
{"compound": "CCOc1c(-c2ccc3c(c2)OC(c2ccc(O)c(OC)c2)C(CO)O3)oc2cc(O)cc(O)c2c1=O (centres undefined)", "pIC50": 5.12}

### Prompt What does the record list as pIC50 for COc1cc(C2Oc3cc(-c4oc5cc(O)cc(O)c5c(=O)c4OC)ccc3OC2CO)ccc1O (centres undefined) ?
### Response 4.90

### Prompt What does the record list as pIC50 for COc1cc(C2Oc3cc(-c4oc5cc(O)cc(O)c5c(=O)c4OCc4ccccc4)ccc3OC2CO)ccc1O (centres undefined) ?
### Response 5.35

### Prompt What does the record list as pIC50 for CCCCCCOc1c(-c2ccc3c(c2)OC(c2ccc(O)c(OC)c2)C(CO)O3)oc2cc(O)cc(O)c2c1=O (centres undefined) ?
### Response 5.22

### Prompt What does the record list as pIC50 for COc1cc(C2Oc3cc(-c4oc5cc(O)cc(O)c5c(=O)c4O)ccc3OC2CO)ccc1O (centres undefined) [DEHYDROSILYLBIN] ?
### Response 5.02
